Each record here notes measured pKd.
B1: scFv; the commonest letter at each place (parent)
chain 1: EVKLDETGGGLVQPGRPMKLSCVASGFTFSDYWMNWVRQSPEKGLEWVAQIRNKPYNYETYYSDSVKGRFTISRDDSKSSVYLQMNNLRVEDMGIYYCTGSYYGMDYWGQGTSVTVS
chain 2: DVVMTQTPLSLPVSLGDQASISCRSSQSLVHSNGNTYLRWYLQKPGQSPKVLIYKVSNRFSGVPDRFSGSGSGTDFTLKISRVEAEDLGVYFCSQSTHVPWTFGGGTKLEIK

Variants of: B1
assayOverview: Kd (Tite-Seq)
experimentalConditions: with fluorescein; format: scFv 4-4-20, heavy + light
pKd: −log10 of the molar value.

- variant: "chain 1 G100M"
  experimentalValue: "≤ 5.00"

Inquiry: Consider the variant shown here: chain 1 S101Y W108V What is its recorded pKd?
Reply text: ≤ 5.00

Inquiry: Consider the variant shown here: chain 1 D31Q W33T What is its recorded pKd?
Reply text: ≤ 5.00

Inquiry: Consider the variant shown here: chain 1 Y32E W36H What is its recorded pKd?
Reply text: ≤ 5.00

Inquiry: Consider the variant shown here: chain 1 S101R G104P What is its recorded pKd?
Reply text: ≤ 5.00

Inquiry: Consider the variant shown here: chain 1 D106Y G109Q What is its recorded pKd?
Reply text: ≤ 5.00

Inquiry: Consider the variant shown here: chain 1 S101Y G104H What is its recorded pKd?
Reply text: ≤ 5.00

Inquiry: Consider the variant shown here: chain 1 W36Q V37T What is its recorded pKd?
Reply text: ≤ 5.00
